assay: Cytotoxicity against Swiss mouse peritoneal macrophages after 24 hrs by MTT assay; format: cell-based, Peritoneal macrophage cell
Label true (1) when CC50 at 24 h is strictly below 10 µM; at or above that, label false (0).

For Cc1ccc(-c2cn(C3C4=C(OC3(C)C)c3ccccc3C(=O)C4=O)nn2)cc1 (configuration not stated) , is the recorded CC50 at 24 h below the cut-off of 10 µM?
true (1)

Dear colleague, could you confirm whether CC50 at 24 h of CCC(C)(O)c1cn(C2CC(C)(C)OC3=C2C(=O)c2ccccc2C3=O)nn1 (configuration not stated) falls below 10 µM? Thanks.
true (1)

Regarding `CC(C)=CC1=C(O)C(=O)c2ccccc2C1=O` , kindly confirm whether its CC50 at 24 h is beneath 10 µM.
false (0)

Given `COc1ccc(-c2cn(C3=CC(=O)c4ccccc4C3=O)nn2)cc1` , is recorded CC50 at 24 h strictly lower than 10 µM?
false (0)

State whether 10 µM exceeds CC50 at 24 h recorded for `CC1(C)CCC2=C(O1)C(=O)c1ccccc1C2=O` .
true (1)

Given `O=C1C=C(n2cc(CN3C(=O)c4ccccc4C3=O)nn2)C(=O)c2ccccc21` , is recorded CC50 at 24 h strictly lower than 10 µM?
true (1)

====

experiment: Selectivity index, ratio of CC50 for Swiss mouse peritoneal macrophages to IC50 for antimony-sensitive Leishmania amazonensis MHOM/BR/1989/BA199 promastigote; assay type: functional
readout.name: Ratio CC50/IC50
Please respond with just the number, no unit label.

Tell me measured Ratio CC50/IC50 for CCC(C)(O)c1cn(C2C3=C(OC2(C)C)C(=O)c2ccccc2C3=O)nn1 (configuration not stated) please.
0.99

Look up Ratio CC50/IC50 of CC1(C)OC2=C(C(=O)C(=O)c3ccccc32)C1n1cc(-c2ccc([N+](=O)[O-])cc2)nn1 (configuration not stated) and report it.
0.98

Input `COc1ccc(-c2cn(C3=CC(=O)c4ccccc4C3=O)nn2)cc1` , output reported Ratio CC50/IC50.
0.49

Output Ratio CC50/IC50 of CC(C)=CCC1=C(O)C(=O)c2ccccc2C1=O [LAPACHOL]
0.58

Hello, please tell me recorded Ratio CC50/IC50 for this one: `O=C1C=C(n2cc(CO)nn2)C(=O)c2ccccc21`
0.4

Give the measured Ratio CC50/IC50 for CC1(C)OC2=C(C(=O)c3ccccc3C2=O)C1n1cc(-c2ccccc2)nn1 (configuration not stated)
3.74

Give me measured Ratio CC50/IC50, please, for this compound: CC1(C)CC(n2cc(C3CCCCC3)nn2)C2=C(O1)C(=O)c1ccccc1C2=O (configuration not stated)
0.93

Provide only the value of recorded Ratio CC50/IC50 for CC1(C)CC2=C(O1)c1ccccc1C(=O)C2=O [NOR-BETA-LAPACHONE]
0.62

Write down Ratio CC50/IC50 measured for item CC1(C)CCC2=C(O1)C(=O)c1ccccc1C2=O [ALPHA-LAPACHONE]
0.24

Name the recorded Ratio CC50/IC50 of the item CCCCCc1cn(C2C3=C(OC2(C)C)C(=O)c2ccccc2C3=O)nn1 (configuration not stated) in your answer.
7.29

Output measured Ratio CC50/IC50 for this item: CC(C)(O)c1cn(C2C3=C(OC2(C)C)C(=O)c2ccccc2C3=O)nn1 (configuration not stated)
1.39

Please look at this compound and report its Ratio CC50/IC50: CCCc1cn(C2CC(C)(C)OC3=C2C(=O)c2ccccc2C3=O)nn1 (configuration not stated)
3.38

Measured values drawn from ChEMBL document CHEMBL2375264 for this set.
